# logP per entry
Assay: oil-in-water coefficient (logP)

molecule	logP
CC(C)(C)C(=O)Oc1ccc2c3c1O[C@H]1[C@@H](O)CC[C@@]4(O)[C@@H](C2)N(CC2CCC2)CC[C@]314 [Nalbuphine pivalate]	1.42
CCCCCCCCCC(=O)Oc1ccc2c3c1O[C@H]1[C@@H](O)CC[C@@]4(O)[C@@H](C2)N(CC2CCC2)CC[C@]314 [Nalbuphine decanoate]	3.3
CCCCCCC(=O)Oc1ccc2c3c1O[C@H]1[C@@H](O)CC[C@@]4(O)[C@@H](C2)N(CC2CCC2)CC[C@]314 [Nalbuphine enanthate]	1.94
O=C(CCCCCCCCC(=O)Oc1ccc2c3c1O[C@H]1[C@@H](O)CC[C@@]4(O)[C@@H](C2)N(CC2CCC2)CC[C@]314)Oc1ccc2c3c1O[C@H]1[C@@H](O)CC[C@@]4(O)[C@@H](C2)N(CC2CCC2)CC[C@]314	3.15
CCC(=O)Oc1ccc2c3c1O[C@H]1[C@@H](O)CC[C@@]4(O)[C@@H](C2)N(CC2CCC2)CC[C@]314 [Nalbuphine propionate]	1.05

----------
Test: drug saturated solubility in water
solubility by entry:
quantity_measured: solubility (µg/mL)

compound	readout_qualifier	measured_number
O=C(CCCCCCCCC(=O)Oc1ccc2c3c1O[C@H]1[C@@H](O)CC[C@@]4(O)[C@@H](C2)N(CC2CCC2)CC[C@]314)Oc1ccc2c3c1O[C@H]1[C@@H](O)CC[C@@]4(O)[C@@H](C2)N(CC2CCC2)CC[C@]314 [Sebacoyl dinalbuphine ester]	<	0.25
CCC(=O)Oc1ccc2c3c1O[C@H]1[C@@H](O)CC[C@@]4(O)[C@@H](C2)N(CC2CCC2)CC[C@]314 [Nalbuphine propionate]	=	44.7
CC(C)(C)C(=O)Oc1ccc2c3c1O[C@H]1[C@@H](O)CC[C@@]4(O)[C@@H](C2)N(CC2CCC2)CC[C@]314 [Nalbuphine pivalate]	=	33.7
CCCCCCC(=O)Oc1ccc2c3c1O[C@H]1[C@@H](O)CC[C@@]4(O)[C@@H](C2)N(CC2CCC2)CC[C@]314 [Nalbuphine enanthate]	=	3
CCCCCCCCCC(=O)Oc1ccc2c3c1O[C@H]1[C@@H](O)CC[C@@]4(O)[C@@H](C2)N(CC2CCC2)CC[C@]314 [Nalbuphine decanoate]	=	0.67

----------
Assay: drug saturated solubility in water
Settings: water
Where a name gives a salt, the structure may show the parent alone.
quantity_measured: solubility

In [3]: df
Out[3]:
                                   molecule      result
0  Oc1ccc2c3c1O[C@H]1[C@@H](O)CC[C@@]4(O)[C@@H](C2)N(CC2CCC2)CC[C@]314 [Nalbuphine HCl]  > 25 mg/mL
